Kd values for the binders below.
Assay system: PhoPC (isolated effector/DNA-binding domain) (Mycobacterium tuberculosis, UniProt P71814 148-247)
Procedure text: ITC; 5 mM MgCl2; ITC: 20 mM HEPES pH 7.5, 100 mM NaCl, 5 mM MgCl2, 25 C, DNA titrated into protein
Study conditions: protein: recombinant; tags: His-tag removed (similar procedure); chain copies: 2
Write the value in µM as a bare number.

Binder	Property	Obs value
RD6 (dsDNA) DNA 1: AAGTACCTCACAGCACTTTCACAGCTTTCAT DNA 2: ATGAAAGCTGTGAAAGTGCTGTGAGGTACTT	Kd	0.188

Now turn to the next binder.
Looking for the measured Kd of RD6-half (dsDNA) DNA 1: CAGAAGTCACAGCACTTGGG DNA 2: CCCAAGTGCTGTGACTTCTG , can you help?
12.2
